# ASSAYED_SYSTEM: Parkinson's disease protein 7 (PARK7/DJ1) (human)
# Sequence (Q99497 whole entry, looked up): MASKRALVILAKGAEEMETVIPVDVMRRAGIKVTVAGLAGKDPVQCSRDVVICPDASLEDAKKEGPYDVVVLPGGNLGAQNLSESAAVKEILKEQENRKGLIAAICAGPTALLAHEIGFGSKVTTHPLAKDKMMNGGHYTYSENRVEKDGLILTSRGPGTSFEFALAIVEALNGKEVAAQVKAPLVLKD
# EXPERIMENT_SUMMARY: primary screen, percent inhibition; higher = more effect of the substance
# CONDITION_LABEL: 100 µM
# Description: The screen was conducted using the conditions as described above in 1536-well plates (Corning 3724) with a reaction volume of 8 μL per well. The compound library containing 7887 covalent fragments was purchased at Enamine Ltd. and received as 100 mM DMSO stocks in 384 well LDV Echo plates (Labcyte LP-0200). Stock solutions of 0.26 μM PARK7 and 80 nM JYQ-107 were prepared. […] After 2 h incubation, the FP signal was recorded on a BMG Labtech PHERAstar plate reader (λex/em 480/520 nm). […]
Screen size: about 7,900 compounds; about 400 (5.1%) showed an effect of 50% or more. Shown is part of a subset that was picked to be rich in strong results.
Please note: class 1 applies when Inhibition % is 8% or greater, and class 0 applies otherwise.

- COMPOUND: "C=CC(=O)N1CCOC(C)(C(F)F)C1 (centres unmarked)"
  CLASS: "class 0"
- COMPOUND: "Cn1c(=O)[nH]c2ccc(B3OC(C)(C)C(C)(C)O3)cc21"
  CLASS: "class 0"
- COMPOUND: "O=S(=O)(F)c1cc(Br)ccc1Cl"
  CLASS: "class 1"
- COMPOUND: "C=CC(=O)N1CCOC(c2ccccc2)C1 (centres unmarked)"
  CLASS: "class 0"

Ask: Could you please find out whether Cc1ccc(S(=O)(=O)F)nn1 has Inhibition % that meets 8% or exceeds it?
Result: class 1

* * *

# ASSAYED_SYSTEM: Parkinson's disease protein 7 (PARK7/DJ1) (human)
# EXPERIMENT_SUMMARY: primary screen, percent inhibition; read as competition with a fluorescent probe by fluorescence polarization; higher = more effect of the substance
# CONDITION_LABEL: 100 µM
Among all 7,900 compounds or so, about 400 (5.1%) showed an effect of 50% or more. For the sample, strong results were picked, then their nearest neighbours and some compounds at random.
Reported Inhibition % is given for each of the following compounds.
Provide only the numeric value, understood in %.

Examples with answers:
- COMPOUND: "CNC(=O)c1ccc(NC(=O)CCl)cc1"
  MEASURED_QUANTITY: "Inhibition %"
  QUANTITY_UNIT: "%"
  REPORTED_MEASUREMENT: 16.6
- COMPOUND: "O=C(CCl)N1CCN(C(=O)C2CC2)CC1"
  MEASURED_QUANTITY: "Inhibition %"
  QUANTITY_UNIT: "%"
  REPORTED_MEASUREMENT: 56.1

Summary: C=CCNC(=O)C(C#N)=Cc1cccc(O)c1 , Parkinson's disease protein 7 (PARK7/DJ1) (human), Inhibition % = 4.34

Observed Inhibition %, Parkinson's disease protein 7 (PARK7/DJ1) (human), Cc1ccc(Oc2ccc(NC(=O)CCl)cc2)cc1 : 36.3

Kindly note: Parkinson's disease protein 7 (PARK7/DJ1) (human), C=CC(=O)N1CCC(c2nccn2C)C1 (centres unmarked) , Inhibition % value reported: 5.02

Case Cc1cnc(=S)[nH]c1 , Parkinson's disease protein 7 (PARK7/DJ1) (human), Inhibition % recorded as 8.44

The observed Inhibition % for CCC(=O)Nc1ccc(C(=O)CCl)cc1 when tested with Parkinson's disease protein 7 (PARK7/DJ1) (human) stands at 4.09

Observed Inhibition %, Parkinson's disease protein 7 (PARK7/DJ1) (human), O=c1[nH]nc(S)n2cccc12 : 26.7

Here O=C(CCl)Nc1ccccc1C(=O)Nc1ccc(F)cc1 was tested on Parkinson's disease protein 7 (PARK7/DJ1) (human), and its Inhibition % came to 6.28

Form: item CN(C(=O)CCl)c1nc2ccccc2s1 ; test system Parkinson's disease protein 7 (PARK7/DJ1) (human); Inhibition %: 3.42

GET /values?item= CN(C)S(=O)(=O)c1cccc(NC(=O)CCl)c1 &system= Parkinson's disease protein 7 (PARK7/DJ1) (human) returns Inhibition %: 15.5

Record O=C(CCl)Nc1ccc2c(c1)C(=O)c1ccccc1C2=O / Parkinson's disease protein 7 (PARK7/DJ1) (human), Inhibition % recorded as 2.08
